# Assay notes: in vivo
# Experimental setup: male, NRG, mouse, iv, total radioactivity, Biodistribution Blood Mean
Readout: tissue uptake at 1 h (%ID/g)
Field format: number, assumed %ID/g, no unit text.

Noted for CC(C)C[C@H](NC(=O)[C@H](Cc1c[nH]cn1)NC(=O)CNC(=O)[C@@H](NC(=O)[C@H](C)NC(=O)[C@H](Cc1c[nH]c2ccccc12)NC(=O)[C@H](CCC(N)=O)NC(=O)[C@@H](Cc1ccccc1)NC(=O)CN1CCC(NC(=O)CN2CCN(CC(=O)O)CCN(CC(=O)O)CCN(CC(=O)O)CC2)CC1)C(C)(C)C)C(=O)N1CSC[C@H]1C(N)=O [^68Ga-LW01108, metal not drawn] : its tissue uptake at 1 h reads 0.59

###

# Assay notes: Ex vivo biodistribution in PC-3 tumor-bearing mice
# Experimental setup: male, NRG, mouse, kidneys, iv, total radioactivity, Biodistribution Kidneys Mean, 1 h post-injection, mice bearing PC-3 tumor xenografts, n = 4
The entries below come with measured tissue uptake at 1 h values attached.
Field format: number, assumed %ID/g, no unit text.

Worked examples follow.
Compound: CC(C)C[C@@H](CN1CSC[C@H]1C(N)=O)NC(=O)[C@H](Cc1cnc[nH]1)NC(=O)CN(C)C(=O)[C@@H](NC(=O)[C@H](C)NC(=O)[C@H](Cc1c[nH]c2ccccc12)NC(=O)[C@H](CCC(N)=O)NC(=O)[C@@H](Cc1ccccc1)NC(=O)CN1CCC(NC(=O)CN2CCN(CC(=O)O)CCN(CC(=O)O)CCN(CC(=O)O)CC2)CC1)C(C)C [^68Ga-LW01090, metal not drawn]
Unit label: %ID/g
Measured result: 3.52

Compound: CC(C)C[C@H](NC(=O)[C@H](Cc1c[nH]cn1)NC(=O)CNC(=O)[C@@H](NC(=O)[C@H](C)NC(=O)[C@H](Cc1c[nH]c2ccccc12)NC(=O)[C@H](CCC(N)=O)NC(=O)[C@@H](Cc1ccccc1)NC(=O)CN1CCC(NC(=O)CN2CCN(CC(=O)O)CCN(CC(=O)O)CCN(CC(=O)O)CC2)CC1)C(C)C)C(=O)N1CSC[C@H]1C(N)=O [^68Ga-LW01025, metal not drawn]
Unit label: %ID/g
Measured result: 2.37

// next item, tissue uptake at 1 h requested
Noted for CC(C)C[C@@H](CN1CSC[C@H]1C(N)=O)NC(=O)[C@H](Cc1c[nH]cn1)NC(=O)CNC(=O)[C@@H](NC(=O)[C@H](C)NC(=O)[C@H](Cc1c[nH]c2ccccc12)NC(=O)[C@H](CCC(N)=O)NC(=O)[C@@H](Cc1ccccc1)NC(=O)CN1CCC(NC(=O)CN2CCN(CC(=O)O)CCN(CC(=O)O)CCN(CC(=O)O)CC2)CC1)C(C)C [^68Ga-LW01045, metal not drawn] : its tissue uptake at 1 h reads 2.51

###

# Assay notes: Ex vivo biodistribution in PC-3 tumor-bearing mice
# Experimental setup: male, NRG, mouse, pancreas, iv, total radioactivity, Biodistribution Pancreas Mean, 1 h post-injection, mice bearing PC-3 tumor xenografts, n = 4
Numbered stars: 1 amine (or outer) side, 2 acyl side, 3 side chain; on linkers, the order of the positions; unused ones are H or OH. Square brackets hold non-standard residues; d marks the D form. Peptide text beside a SMILES is read from it. * marks the point of attachment. DOTA = O=C(O)CN1CCN(CC(=O)O)CCN(CC(=O)*)CCN(CC(=O)O)CC1; Leuψ(CH2N)ThzNH2 = CC(C)C[C@@H](CN1CSC[C@H]1C(N)=O)N*; X1 = O=C(CN1CCC(N[*:1])CC1)[*:2]; Tle = CC(C)(C)[C@H](N)C(=O)O
Readout: tissue uptake at 1 h (%ID/g)
Field format: number, assumed %ID/g, no unit text.

Molecule: CC(C)C[C@@H](CN1CSC[C@H]1C(N)=O)NC(=O)[C@H](Cc1c[nH]cn1)NC(=O)CNC(=O)[C@@H](NC(=O)[C@H](C)NC(=O)[C@H](Cc1c[nH]c2ccccc12)NC(=O)[C@H](CCC(N)=O)NC(=O)[C@@H](Cc1ccccc1)NC(=O)CN1CCC(NC(=O)CN2CCN(CC(=O)O)CCN(CC(=O)O)CCN(CC(=O)O)CC2)CC1)C(C)(C)C [^68Ga-LW01158, metal not drawn] ({DOTA}-[X1][dF]QWA[Tle]GH-{Leuψ(CH2N)ThzNH2})
tissue uptake at 1 h / %ID/g: 12

Noted for CC(C)C[C@H](NC(=O)[C@H](Cc1c[nH]cn1)NC(=O)CNC(=O)[C@@H](NC(=O)[C@H](C)NC(=O)[C@H](Cc1c[nH]c2ccccc12)NC(=O)[C@H](CCC(N)=O)NC(=O)[C@@H](Cc1ccccc1)NC(=O)CN1CCC(NC(=O)CN2CCN(CC(=O)O)CCN(CC(=O)O)CCN(CC(=O)O)CC2)CC1)C(C)C)C(=O)N1CSC[C@H]1C(N)=O [^68Ga-LW01025, metal not drawn] : its tissue uptake at 1 h reads 1.28

Noted for CC(C)C[C@H](NC(=O)[C@H](Cc1c[nH]cn1)NC(=O)CNC(=O)[C@@H](NC(=O)[C@H](C)NC(=O)[C@H](Cc1c[nH]c2ccccc12)NC(=O)[C@H](CCC(N)=O)NC(=O)[C@@H](Cc1ccc2ccccc2c1)NC(=O)CN1CCC(NC(=O)CN2CCN(CC(=O)O)CCN(CC(=O)O)CCN(CC(=O)O)CC2)CC1)C(C)C)C(=O)N1CSC[C@H]1C(N)=O [^68Ga-LW01029, metal not drawn] : its tissue uptake at 1 h reads 2.56

###

# Assay notes: Ex vivo biodistribution in PC-3 tumor-bearing mice
# Experimental setup: male, NRG, mouse, stomach, iv, total radioactivity, Biodistribution Stomach Mean, 1 h post-injection, mice bearing PC-3 tumor xenografts, n = 4
Numbered stars: 1 amine (or outer) side, 2 acyl side, 3 side chain; on linkers, the order of the positions; unused ones are H or OH. Square brackets hold non-standard residues; d marks the D form. Peptide text beside a SMILES is read from it. * marks the point of attachment. DOTA = O=C(O)CN1CCN(CC(=O)O)CCN(CC(=O)*)CCN(CC(=O)O)CC1; Leuψ(CH2N)ThzNH2 = CC(C)C[C@@H](CN1CSC[C@H]1C(N)=O)N*; X1 = O=C(CN1CCC(N[*:1])CC1)[*:2]
Labelling: tissue uptake at 1 h reported below 0.8 %ID/g becomes Met; at or above becomes Not met.

Compound: CC(C)C[C@H](NC(=O)[C@H](Cc1c[nH]cn1)NC(=O)CNC(=O)[C@@H](NC(=O)[C@H](C)NC(=O)[C@H](Cc1c[nH]c2ccccc12)NC(=O)[C@H](CCC(N)=O)NC(=O)[C@@H](Cc1ccc2ccccc2c1)NC(=O)CN1CCC(NC(=O)CN2CCN(CC(=O)O)CCN(CC(=O)O)CCN(CC(=O)O)CC2)CC1)C(C)C)C(=O)N1CSC[C@H]1C(N)=O [^68Ga-LW01029, metal not drawn]
Class: Met
//
Compound: CC(C)C[C@@H](CN1CSC[C@H]1C(N)=O)NC(=O)[C@H](Cc1c[nH]cn1)NC(=O)CNC(=O)[C@@H](NC(=O)[C@H](C)NC(=O)[C@H](Cc1c[nH]c2ccccc12)NC(=O)[C@H](Cc1c[nH]cn1)NC(=O)[C@@H](Cc1ccccc1)NC(=O)CN1CCC(NC(=O)CN2CCN(CC(=O)O)CCN(CC(=O)O)CCN(CC(=O)O)CC2)CC1)C(C)C [^68Ga-LW01102, metal not drawn] ({DOTA}-[X1][dF]HWAVGH-{Leuψ(CH2N)ThzNH2})
Class: Not met
//
Compound: CC(C)C[C@@H](CN1CCC[C@H]1C(N)=O)NC(=O)[C@H](Cc1c[nH]cn1)NC(=O)CN(C)C(=O)[C@@H](NC(=O)[C@H](C)NC(=O)[C@H](Cc1c[nH]c2ccccc12)NC(=O)[C@H](CCC(N)=O)NC(=O)[C@@H](Cc1ccccc1)NC(=O)CN1CCC(NC(=O)CN2CCN(CC(=O)O)CCN(CC(=O)O)CCN(CC(=O)O)CC2)CC1)C(C)C [^68Ga-LW02045, metal not drawn]
Class: Met
//
Compound: CC(C)C[C@H](NC(=O)[C@H](Cc1c[nH]cn1)NC(=O)CNC(=O)[C@@H](NC(=O)[C@H](C)NC(=O)[C@H](Cc1c[nH]c2ccccc12)NC(=O)[C@H](CCC(N)=O)NC(=O)[C@@H](Cc1ccccc1)NC(=O)CN1CCC(NC(=O)CN2CCN(CC(=O)O)CCN(CC(=O)O)CCN(CC(=O)O)CC2)CC1)C(C)C)C(=O)N1CSC[C@H]1C(N)=O [^68Ga-LW01025, metal not drawn]
Class: Met
//
Compound: CC(C)C[C@@H](CN1CSC[C@H]1C(N)=O)NC(=O)[C@H](Cc1cnc[nH]1)NC(=O)CN(C)C(=O)[C@@H](NC(=O)[C@H](C)NC(=O)[C@H](Cc1c[nH]c2ccccc12)NC(=O)[C@H](CCC(N)=O)NC(=O)[C@@H](Cc1ccccc1)NC(=O)CN1CCC(NC(=O)CN2CCN(CC(=O)O)CCN(CC(=O)O)CCN(CC(=O)O)CC2)CC1)C(C)C [^68Ga-LW01090, metal not drawn]
Class: Met

Decide: tissue uptake at 1 h of CC(C)C[C@@H](CN1CSC[C@H]1C(N)=O)NC(=O)[C@H](Cc1c[nH]cn1)NC(=O)CNC(=O)[C@@H](NC(=O)[C@H](C)NC(=O)[C@H](Cc1c[nH]c2ccccc12)NC(=O)[C@H](CCC(N)=O)NC(=O)[C@@H](Cc1ccccc1)NC(=O)CN1CCC(NC(=O)CN2CCN(CC(=O)O)CCN(CC(=O)O)CCN(CC(=O)O)CC2)CC1)C(C)C [^68Ga-LW01045, metal not drawn] strictly below 0.8 %ID/g? Met

Decide: tissue uptake at 1 h of CC(C)C[C@@H](CN1CSC[C@H]1C(N)=O)NC(=O)[C@H](Cc1c[nH]cn1)NC(=O)CNC(=O)[C@@H](NC(=O)[C@H](C)NC(=O)[C@H](Cc1c[nH]c2ccccc12)NC(=O)[C@H](CCC(N)=O)NC(=O)[C@@H](Cc1ccc2ccccc2c1)NC(=O)CN1CCC(NC(=O)CN2CCN(CC(=O)O)CCN(CC(=O)O)CCN(CC(=O)O)CC2)CC1)C(C)C [^68Ga-LW01059, metal not drawn] strictly below 0.8 %ID/g? Not met
